Please go through the items and note down their ETS1 binding intensity.
Biological target: ETS1 (UniProt P14921)
Sequence: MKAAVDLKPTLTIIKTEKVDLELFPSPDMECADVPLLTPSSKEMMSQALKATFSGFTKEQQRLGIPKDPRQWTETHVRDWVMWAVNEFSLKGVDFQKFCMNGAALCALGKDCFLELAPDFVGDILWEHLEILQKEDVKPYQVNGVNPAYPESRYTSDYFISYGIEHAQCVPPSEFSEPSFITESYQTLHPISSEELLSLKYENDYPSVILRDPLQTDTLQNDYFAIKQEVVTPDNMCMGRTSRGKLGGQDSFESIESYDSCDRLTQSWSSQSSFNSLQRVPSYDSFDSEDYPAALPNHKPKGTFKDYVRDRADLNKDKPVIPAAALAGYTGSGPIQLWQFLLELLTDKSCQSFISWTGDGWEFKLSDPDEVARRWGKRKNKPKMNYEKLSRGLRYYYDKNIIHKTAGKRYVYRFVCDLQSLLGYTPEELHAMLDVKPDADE
Assay: ETS1 binding intensity (PBM fluorescence), ETS1 alone (arbitrary fluorescence units); higher = stronger binding
Settings: ETS1 concentration 1 nM; RUNX1 concentration 0 nM
One number for each entry.

ACCCCGGAAGTGTGGGCGCGGCTGCGGTTTAACCCG	2640
AGCGACAGCGGATGCTCTCTGGCCGCAACATTCTTT	880
TTACAATCATTTCCTCTCTGTGGTTTGGTGACAAAT	722

Fill blank: measured ETS1 binding intensity of the sequence TTTCTGACACTCTCAGGATGTGGGTTTTCGCACTGT is ____.
1230

###

Target: RUNX1 (UniProt Q01196)
Sequence (Q01196 whole entry): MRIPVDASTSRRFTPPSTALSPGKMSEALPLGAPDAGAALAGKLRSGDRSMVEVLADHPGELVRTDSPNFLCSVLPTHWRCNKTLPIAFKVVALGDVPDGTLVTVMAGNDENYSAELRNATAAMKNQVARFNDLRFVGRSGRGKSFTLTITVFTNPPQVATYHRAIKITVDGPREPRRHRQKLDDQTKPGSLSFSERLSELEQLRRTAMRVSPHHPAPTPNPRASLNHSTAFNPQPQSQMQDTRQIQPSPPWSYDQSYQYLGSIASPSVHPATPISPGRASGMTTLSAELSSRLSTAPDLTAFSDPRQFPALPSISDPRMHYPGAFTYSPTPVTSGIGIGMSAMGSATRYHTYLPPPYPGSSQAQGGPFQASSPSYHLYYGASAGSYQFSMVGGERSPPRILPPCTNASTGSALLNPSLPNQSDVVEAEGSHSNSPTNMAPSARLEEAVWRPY
Assay: RUNX1 binding intensity (PBM fluorescence), RUNX1 alone (arbitrary fluorescence units); higher = stronger binding
Details: RUNX1 concentration 2 nM; ETS1 concentration 0 nM
Categorized via RUNX1 binding intensity: low-valued: < 800; mid-valued: ≥ 800 and < 1000; high-valued: ≥ 1000

// known answers, use as guide
AGCTCTAAGGTTCCGCCTGCGGGCAGCAAGCGGAGG	mid-valued
AAGGGAGCCGCCCGGAAACCGCGCGGCAAAGATGCC	low-valued
TTATTTCCGGTGTTGATCTTTTTAGTGGTACCAGGC	high-valued

Just checking, what class would you give GGAGGGGCTGGCCGGAAGTGAACCGCAGAGCACGCT here?
high-valued

Just checking, what class would you give GCATTGTGCTTCCGCTCGGGGAAAGACCGCTTACGG here?
mid-valued

Just checking, what class would you give AATCATCAGGGAAATGCAAATCAAAACCACAATCAG here?
high-valued

Just checking, what class would you give CCATTCTTCCGGTGGAGATGGCTGCGGCCGTGGCGG here?
low-valued

Just checking, what class would you give TCATATCCGGCAGGAATGGGTTTTGTGGCTTTGTGC here?
high-valued

Just checking, what class would you give GACATATCCTGCATTCTCAGAAAAACCACAGGCTAG here?
high-valued

###

Biological target: ETS1 (UniProt P14921)
Sequence: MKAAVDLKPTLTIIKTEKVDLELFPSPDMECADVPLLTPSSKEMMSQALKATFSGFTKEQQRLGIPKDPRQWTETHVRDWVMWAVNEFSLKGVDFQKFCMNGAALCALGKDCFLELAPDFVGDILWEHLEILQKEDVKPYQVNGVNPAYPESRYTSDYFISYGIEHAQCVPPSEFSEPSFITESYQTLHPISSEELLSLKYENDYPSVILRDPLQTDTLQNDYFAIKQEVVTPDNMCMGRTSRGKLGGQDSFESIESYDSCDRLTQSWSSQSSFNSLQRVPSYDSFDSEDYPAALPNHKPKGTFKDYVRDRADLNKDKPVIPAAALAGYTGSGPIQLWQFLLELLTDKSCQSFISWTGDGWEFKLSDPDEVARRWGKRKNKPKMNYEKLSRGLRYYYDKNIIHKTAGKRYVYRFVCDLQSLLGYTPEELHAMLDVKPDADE
Assay: ETS1 binding intensity (PBM fluorescence), ETS1 alone (arbitrary fluorescence units); higher = stronger binding
Settings: ETS1 concentration 1 nM; RUNX1 concentration 0 nM
Think of 700 as a floor: if ETS1 binding intensity stands on it or above, it is true (1); beneath it, false (0).

Form field: ETS1 binding intensity at least 700? Entry: ACACCGGAAGCCCAACAGCATGCCGAGTAACCACCC
true (1)

Form field: ETS1 binding intensity at least 700? Entry: GGTTCGCGGCTTCCGGGACATTTGTACCGCAGGGGG
true (1)

###

Target: ETS1 (UniProt P14921)
Sequence: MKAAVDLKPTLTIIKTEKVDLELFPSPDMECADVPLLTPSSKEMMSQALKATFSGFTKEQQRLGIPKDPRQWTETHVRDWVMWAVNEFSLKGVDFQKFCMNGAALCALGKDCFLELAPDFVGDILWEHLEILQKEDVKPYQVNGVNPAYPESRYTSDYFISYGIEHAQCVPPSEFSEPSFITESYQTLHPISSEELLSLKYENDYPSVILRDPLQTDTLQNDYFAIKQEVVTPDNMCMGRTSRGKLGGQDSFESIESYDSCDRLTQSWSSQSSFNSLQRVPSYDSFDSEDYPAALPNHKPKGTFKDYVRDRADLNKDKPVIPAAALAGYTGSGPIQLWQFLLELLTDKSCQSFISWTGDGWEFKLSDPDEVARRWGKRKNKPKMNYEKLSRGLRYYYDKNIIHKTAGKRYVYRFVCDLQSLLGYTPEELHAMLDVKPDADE
Assay: ETS1 binding intensity (PBM fluorescence), ETS1 alone (arbitrary fluorescence units); higher = stronger binding
Settings: ETS1 concentration 1 nM; RUNX1 concentration 0 nM
Please go through the items and note down their ETS1 binding intensity.
Numbers only.

Example entries and their recorded answers appear below.
CTGGGGAGGAAGCCTGAGGTGTGTGGTTTTGTTAAC	374
GAAGCCCAACAGGATGCCGAGTAACCACCCACTGAA	1040

Here are 3 sequences. What values of ETS1 binding intensity were reported for them?
1. GAGCAGGAAGCACCCCCAGCACAGGCCTGCGGTGAG
2. CTAACAGCAGGAAGTGCTTGGTGGTTTAGCACCTCA
3. GGGGCCTCTGCTACTTCCTAGACCGCAAAATGGAGA

1. 438
2. 2990
3. 413

Here are 3 sequences. What values of ETS1 binding intensity were reported for them?
1. CTGCTGACCAAAACAGGATGTGGTCTACACAAAGTG
2. CAAGAGAAAGGAAGTGGAAGCTCTTGTGGTCTGGAA
3. GAGAACTTCCGGTGCGCTCCCCGGGACTGCGGTCCC

1: 10300; 2: 1460; 3: 3420

###

Biological target: RUNX1 (UniProt Q01196)
Assay: RUNX1 binding intensity (PBM fluorescence), RUNX1 alone (arbitrary fluorescence units); higher = stronger binding
Settings: RUNX1 concentration 2 nM; ETS1 concentration 0 nM
property.label: RUNX1 binding intensity
Give bare numbers.

CTCCCGGACGCTAACGTCTGGCAAACCACATTGCCC	993

Here are 3 sequences. What values of RUNX1 binding intensity were reported for them?
1. AGCTCAATTTCCTGGCGTGTAACATGGCCACAAGGG
2. CCCACAGGAAATCCCCTGGTCTGTGGCGCCTCTGAT
3. GGGCGCGACTTCCGGGGCGGCGGTTGCATCAGATTC

1: 830; 2: 766; 3: 774

###

Target: RUNX1 (UniProt Q01196)
Assay: RUNX1 binding intensity (PBM fluorescence) in presence of ETS1, normalised to RUNX1-only experiment (arbitrary fluorescence units); higher = stronger binding
Settings: RUNX1 concentration 2 nM; ETS1 concentration 25 nM
property.label: RUNX1 binding intensity

Example entries and their recorded answers appear below.
CAAGCACATTACGGAAGAGGCTGACCGCAAATACGA	6950
AGAGCGAGGAGGACTTCCTGCGGCAGGTCGGCGTGA	1080
AAATGTGGCCGGATGCTCTGTGGGCGGGCGGCAGCT	1300

Here are 7 sequences. What values of RUNX1 binding intensity were reported for them?
1. CACCCAGTTTGAACTTCCTGGCGGTTTTGTTTACAC
2. TGGGTGCCGGATTCGGTGAGTGTGGTTCTCATGATG
3. CTTTGTTGAAAAGGATGTGGTCATCTGATCTTGCTG
4. AGTCGGAAGCCATCTGCCCCAACTTGCGGTCTTCAC
5. CAAAGTGATGGGGGAAATGGTTGTGGTTTTGGGTGG
6. GCGAGGAGACAACTTCCTTTTGTGGTCTGACCCTGG
7. CTTTTCCATGCAGGAAGTGGTTTTTAGAGTGTAGAG

1730
895
2000
1080
1500
1970
2920

###

Target: RUNX1 (UniProt Q01196)
Assay: RUNX1 binding intensity (PBM fluorescence), RUNX1 alone (arbitrary fluorescence units); higher = stronger binding
Conditions: RUNX1 concentration 2 nM; ETS1 concentration 0 nM
Think of 800 as a floor: if RUNX1 binding intensity stands on it or above, it is T; beneath it, F.

// known answers, use as guide
CAGCTAGCCGGAAGAAGCTGCGGCGACAGCGTCCTG	F
AACAAACCGGATGGGGTTCCCACCCGCAATCTTGTC	T
GCTGCCGGAAAAGGCGCCGAGGTAACCGCCTCACTT	T
TAAGTGCAGGAAACGGCTGTGTGGGTGTCAGTGATT	F
AGAGCAACAGGATGCAAATAACCACAAGCAAGAATA	T
CACCCTGCCACTTCCCTAAACTCCCCGCACAGGCCG	T
GAGGGAGCAGTTCCGGGTGCGGTGCGCGCCAGGGGC	T
TCTGCCGCCAGCCCATCCGCGACCGCATCCAGATCT	T

Here's the next entry for you.
Form field: RUNX1 binding intensity at least 800? Entry: TCTCTATGGTTTCCGTTGGGTGTGTGGTTTTTTTGT
T

Data credit: the supplement of paper PMC10681739
